study_system: Neurogenic locus notch homolog protein 3 (Homo sapiens)
protocol: NOTCH3 binders on small-molecule microarray, primary screen, biochemical, 635/667 nm fluorescence (AID 1096)
experimental_parameters: NOTCH3 binding, 635 nm fluorescence, higher = more signal
readout: composite z-score
Lab note: record the figure alone, no unit after it.

(Q) Could you share which composite z-score value was measured for "CCCC=C(CCC)[C@@H](NC(=O)c1cccs1)c1ccc(C(F)(F)F)cc1" ?
(A) 1.09

(Q) What value of measured composite z-score is listed for "COc1ccc(CCNC(=O)[C@@]2(Sc3ccc(C)cc3)CC(=O)N(C(C)C)[C@@H]2c2ccc(CO)cc2I)cc1" ?
(A) -0.343

(Q) Dear colleague, I am looking for the recorded composite z-score of the following molecule: "O=C1O[C@@H](c2ccccc2)[C@@H](c2ccccc2)N2[C@@H](c3ccccc3OCCO)[C@]3(C(=O)Nc4ccccc43)[C@@H](C(=O)Nc3nc4ccccc4s3)[C@H]12"
(A) 1.04

(Q) Which composite z-score value belongs to CC1(C)C2C=C(C(O)C3C=CC4C(=O)NC(=O)C4N3Nc3ccc(Cl)cc3Cl)C[C@@H]1C2 (some centres not stated) ?
(A) 0.996

(Q) # query: composite z-score of entry "COc1ccc([Si](C)(C)[C@@H]2[C@@H](CCO)O[C@]3(C(=O)N(Cc4ccc(N(C=O)c5ccccc5)cc4)c4ccccc43)[C@H]2C)cc1"
(A) 0.332

(Q) Reported composite z-score, molecule "CN(C)CCCC[C@@H]1NC(=O)[C@H]2C[C@@H](C(=O)NCCCCCCN)[C@@H](c3ccc(O)cc3)N2C1=O" : ____
(A) 1.15

(Q) Quick check: composite z-score of "COc1ccc(CCNC(=O)[C@@]2(Sc3ccc(C)cc3)CC(=O)N(C3Cc4ccccc4C3)[C@@H]2c2ccc(CO)cc2I)cc1" ?
(A) -0.0239

(Q) Given the entry "Oc1ccc2cc[n+](Cc3sc4ccccc4c3Cl)cc2c1" , report its measured composite z-score.
(A) 0.207

(Q) Would you mind telling me what composite z-score value was observed for "COc1ccc(CCNC(=O)[C@@]2(C)c3ccccc3C(=O)N(C(C)C)[C@H]2c2ccc(CO)cc2)cc1" ?
(A) -0.399

(Q) Recorded composite z-score of O=C1C2C=CC(C(O)c3cccc4ccccc34)N(Nc3ccccc3F)C2C(=O)N1c1ccccc1 (configuration not stated) , please.
(A) 1.12

(Q) Given the molecule "CC(C)C(=C=CC[C@@H](O)c1ccc(OCCO)cc1)C[C@@H](O)c1ccccn1" , what is its reported composite z-score?
(A) 0.813

(Q) Can you look up the measured composite z-score of "Cc1nc2cc(Br)ccc2c(=O)o1" for me?
(A) 1.04

(Q) For the molecule shown here, "COC(=O)[C@H](Cc1ccccc1)N1CC2=C[C@@H](C3CC3)n3c(=O)n(C)c(=O)n3[C@H]2[C@@H]1[C@@H](O)Cc1ccccc1" , give the reported composite z-score.
(A) 1.02

(Q) Give its composite z-score value. Item: "C=CC(=C)[C@H]1Oc2ccccc2S(=O)(=O)N2CCC[C@@H]12"
(A) -0.406

(Q) Which composite z-score is listed for "NC(=O)[C@@H]1[C@H]2C(=O)O[C@H](c3ccccc3)[C@H](c3ccccc3)N2[C@H](c2ccc(O)cc2)[C@@]12C(=O)Nc1ccccc12" ?
(A) 0.118

(Q) What value of composite z-score has been recorded for this entry: "C=C(CCCC)/C(=C/C[C@H](OC(C)=O)c1ccccc1OCCO)c1cc(C(=O)OC)ccc1OC"
(A) 0.212

(Q) Query (molecule): "CCCC[C@@H]1C[C@H]1[C@@H](NC(=O)c1ccccc1)c1ccc(C(=O)OC)cc1" ; field requested: composite z-score
(A) -0.544

* * *

study_system: Epidermal growth factor receptor (Homo sapiens) (UniProt P00533)
Sequence (P00533 whole entry, looked up): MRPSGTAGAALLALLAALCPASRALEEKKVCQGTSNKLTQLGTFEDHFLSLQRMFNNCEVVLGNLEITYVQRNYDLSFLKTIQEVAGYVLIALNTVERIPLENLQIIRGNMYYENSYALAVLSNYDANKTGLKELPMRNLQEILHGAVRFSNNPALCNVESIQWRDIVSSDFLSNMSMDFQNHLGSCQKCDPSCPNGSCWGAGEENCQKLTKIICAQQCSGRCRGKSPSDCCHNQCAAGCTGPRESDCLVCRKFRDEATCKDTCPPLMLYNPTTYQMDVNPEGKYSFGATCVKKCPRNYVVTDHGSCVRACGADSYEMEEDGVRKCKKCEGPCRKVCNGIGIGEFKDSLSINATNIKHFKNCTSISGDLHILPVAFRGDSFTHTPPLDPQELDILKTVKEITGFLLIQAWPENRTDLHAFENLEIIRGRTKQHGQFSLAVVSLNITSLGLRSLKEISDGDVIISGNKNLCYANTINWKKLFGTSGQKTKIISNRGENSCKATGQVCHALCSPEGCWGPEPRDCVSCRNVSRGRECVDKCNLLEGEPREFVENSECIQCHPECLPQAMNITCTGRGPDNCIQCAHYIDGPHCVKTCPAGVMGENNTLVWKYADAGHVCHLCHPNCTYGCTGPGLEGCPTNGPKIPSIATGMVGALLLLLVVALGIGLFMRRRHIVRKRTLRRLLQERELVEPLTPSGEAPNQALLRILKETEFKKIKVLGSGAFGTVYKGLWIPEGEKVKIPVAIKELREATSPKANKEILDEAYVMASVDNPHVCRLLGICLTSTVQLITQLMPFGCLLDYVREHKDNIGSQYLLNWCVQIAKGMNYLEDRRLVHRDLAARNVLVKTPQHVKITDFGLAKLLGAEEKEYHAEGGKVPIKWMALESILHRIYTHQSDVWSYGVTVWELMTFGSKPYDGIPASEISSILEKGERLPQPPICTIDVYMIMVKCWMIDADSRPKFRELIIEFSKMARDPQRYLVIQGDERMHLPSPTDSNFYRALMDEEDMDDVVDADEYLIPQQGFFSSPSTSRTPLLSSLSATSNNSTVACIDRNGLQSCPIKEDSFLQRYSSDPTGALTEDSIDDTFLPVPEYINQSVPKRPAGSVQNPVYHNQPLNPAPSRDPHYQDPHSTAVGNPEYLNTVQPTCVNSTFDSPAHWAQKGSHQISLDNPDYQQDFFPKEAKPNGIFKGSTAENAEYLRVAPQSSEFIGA
protocol: EGFR binders on small-molecule microarrays, primary screen, biochemical, small-molecule microarray, 635 nm fluorescence (AID 1104);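 also: score merges 667 nm emission intensity with spot signal to noise over triplicate slides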
experimental_parameters: EGFR binding, higher = more signal
readout: composite z-score
When you answer, write just the number.

(Q) GET /values?readout=composite z-score&item= "CC(C)(C)OC(=O)CC[C@]1(C(=O)N2CCOCC2)N=C(c2ccc(OCCCO)cc2)O[C@H]1c1ccccc1N=[N+]=[N-]"
(A) -0.0405

(Q) Field request: composite z-score | item: "C=CCOC(=O)[C@H]1[C@@H]2C(=O)O[C@@H](c3ccccc3)[C@@H](c3ccccc3)N2[C@@H](c2ccc(OCCOC(=O)[C@H]3C[C@H]4C(=O)N[C@@H](CCCCNC(C)=O)C(=O)N4[C@H]3c3ccc(O)cc3)cc2)[C@]12C(=O)Nc1ccc(I)cc12"
(A) 0.506

(Q) I am curious: what composite z-score value has been reported for "C#C[C@H](O[Si](C#Cc1ccc(Oc2ccccc2)cc1)(C(C)C)C(C)C)c1ccccc1" ?
(A) 0.144

* * *

protocol: small-molecule microarray binders of probe aLefty2, primary screen, biochemical, biotinylated probe, 635/667 nm fluorescence (AID 1094);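 also: score merges spot fluorescence near 667 nm with spot signal-to-noise ratio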
experimental_parameters: higher = more signal
readout: composite z-score
Lab note: record the figure alone, no unit after it.

(Q) // returns reported composite z-score for input "[N-]=[N+]=Nc1ccccc1[C@@H]1OC(c2ccc(OCCCO)cc2)=N[C@]1(Cc1ccccc1)C(=O)N1CCOCC1"
(A) 0.225

(Q) # composite z-score lookup, item "COC(=O)C(CC#Cc1ccc2c(c1)[C@]1(C(=O)N2)[C@H](C(=O)Nc2nc3ccccc3s2)[C@H]2C(=O)O[C@H](c3ccccc3)[C@H](c3ccccc3)N2[C@@H]1c1ccc(O)cc1)C(=O)OC"
(A) -0.0258

(Q) Which composite z-score value is on record for "C=CCOC(=O)[C@@H]1[C@H]2C(=O)O[C@H](c3ccccc3)[C@H](c3ccccc3)N2[C@H](c2ccc(OCCOC(=O)[C@@H]3C[C@@H]4C(=O)NCC(=O)N4[C@@H]3c3ccc(O)cc3)cc2)[C@@]12C(=O)Nc1ccc(I)cc12" ?
(A) -0.171

* * *

protocol: HepG2 cell viability effects, profiling panel, calcein-AM fluorescence, 48 h, basal (AID 1164); also: test concentration not given here
experimental_parameters: higher = more signal
For each entry below, report its z-score value.
Respond numerically, and do not add a unit to the figure.

(Q) Query: z-score; subject: "CN(C)CCCCCCNC(=O)[C@H]1C[C@H]2C(=O)N3CCC[C@H]3C(=O)N2[C@H]1c1ccc(O)cc1"
(A) -0.952

(Q) Name the recorded z-score for "CNS(=O)(=O)c1ccc(C)cc1" .
(A) 1.4

(Q) Can you look up the measured z-score of "CCC[C@@H]1C[C@@]1(CCC)[C@@H](NS(=O)(=O)c1cccc2cccnc12)c1ccc(Cl)cc1" for me?
(A) 0.112

(Q) For the compound "COCCOC(=O)N1C(=O)[C@@]2(c3cc(C#CC4(O)CCCCCC4)ccc31)[C@H](c1ccccc1OCCO)N1[C@H](c3ccccc3)[C@H](c3ccccc3)OC(=O)[C@H]1[C@@H]2C(=O)N1CCN(c2ncccn2)CC1" , what z-score is on record?
(A) 1.4

* * *

study_system: Neurogenic locus notch homolog protein 2 (Homo sapiens) (UniProt Q04721)
Sequence (Q04721 whole entry, looked up): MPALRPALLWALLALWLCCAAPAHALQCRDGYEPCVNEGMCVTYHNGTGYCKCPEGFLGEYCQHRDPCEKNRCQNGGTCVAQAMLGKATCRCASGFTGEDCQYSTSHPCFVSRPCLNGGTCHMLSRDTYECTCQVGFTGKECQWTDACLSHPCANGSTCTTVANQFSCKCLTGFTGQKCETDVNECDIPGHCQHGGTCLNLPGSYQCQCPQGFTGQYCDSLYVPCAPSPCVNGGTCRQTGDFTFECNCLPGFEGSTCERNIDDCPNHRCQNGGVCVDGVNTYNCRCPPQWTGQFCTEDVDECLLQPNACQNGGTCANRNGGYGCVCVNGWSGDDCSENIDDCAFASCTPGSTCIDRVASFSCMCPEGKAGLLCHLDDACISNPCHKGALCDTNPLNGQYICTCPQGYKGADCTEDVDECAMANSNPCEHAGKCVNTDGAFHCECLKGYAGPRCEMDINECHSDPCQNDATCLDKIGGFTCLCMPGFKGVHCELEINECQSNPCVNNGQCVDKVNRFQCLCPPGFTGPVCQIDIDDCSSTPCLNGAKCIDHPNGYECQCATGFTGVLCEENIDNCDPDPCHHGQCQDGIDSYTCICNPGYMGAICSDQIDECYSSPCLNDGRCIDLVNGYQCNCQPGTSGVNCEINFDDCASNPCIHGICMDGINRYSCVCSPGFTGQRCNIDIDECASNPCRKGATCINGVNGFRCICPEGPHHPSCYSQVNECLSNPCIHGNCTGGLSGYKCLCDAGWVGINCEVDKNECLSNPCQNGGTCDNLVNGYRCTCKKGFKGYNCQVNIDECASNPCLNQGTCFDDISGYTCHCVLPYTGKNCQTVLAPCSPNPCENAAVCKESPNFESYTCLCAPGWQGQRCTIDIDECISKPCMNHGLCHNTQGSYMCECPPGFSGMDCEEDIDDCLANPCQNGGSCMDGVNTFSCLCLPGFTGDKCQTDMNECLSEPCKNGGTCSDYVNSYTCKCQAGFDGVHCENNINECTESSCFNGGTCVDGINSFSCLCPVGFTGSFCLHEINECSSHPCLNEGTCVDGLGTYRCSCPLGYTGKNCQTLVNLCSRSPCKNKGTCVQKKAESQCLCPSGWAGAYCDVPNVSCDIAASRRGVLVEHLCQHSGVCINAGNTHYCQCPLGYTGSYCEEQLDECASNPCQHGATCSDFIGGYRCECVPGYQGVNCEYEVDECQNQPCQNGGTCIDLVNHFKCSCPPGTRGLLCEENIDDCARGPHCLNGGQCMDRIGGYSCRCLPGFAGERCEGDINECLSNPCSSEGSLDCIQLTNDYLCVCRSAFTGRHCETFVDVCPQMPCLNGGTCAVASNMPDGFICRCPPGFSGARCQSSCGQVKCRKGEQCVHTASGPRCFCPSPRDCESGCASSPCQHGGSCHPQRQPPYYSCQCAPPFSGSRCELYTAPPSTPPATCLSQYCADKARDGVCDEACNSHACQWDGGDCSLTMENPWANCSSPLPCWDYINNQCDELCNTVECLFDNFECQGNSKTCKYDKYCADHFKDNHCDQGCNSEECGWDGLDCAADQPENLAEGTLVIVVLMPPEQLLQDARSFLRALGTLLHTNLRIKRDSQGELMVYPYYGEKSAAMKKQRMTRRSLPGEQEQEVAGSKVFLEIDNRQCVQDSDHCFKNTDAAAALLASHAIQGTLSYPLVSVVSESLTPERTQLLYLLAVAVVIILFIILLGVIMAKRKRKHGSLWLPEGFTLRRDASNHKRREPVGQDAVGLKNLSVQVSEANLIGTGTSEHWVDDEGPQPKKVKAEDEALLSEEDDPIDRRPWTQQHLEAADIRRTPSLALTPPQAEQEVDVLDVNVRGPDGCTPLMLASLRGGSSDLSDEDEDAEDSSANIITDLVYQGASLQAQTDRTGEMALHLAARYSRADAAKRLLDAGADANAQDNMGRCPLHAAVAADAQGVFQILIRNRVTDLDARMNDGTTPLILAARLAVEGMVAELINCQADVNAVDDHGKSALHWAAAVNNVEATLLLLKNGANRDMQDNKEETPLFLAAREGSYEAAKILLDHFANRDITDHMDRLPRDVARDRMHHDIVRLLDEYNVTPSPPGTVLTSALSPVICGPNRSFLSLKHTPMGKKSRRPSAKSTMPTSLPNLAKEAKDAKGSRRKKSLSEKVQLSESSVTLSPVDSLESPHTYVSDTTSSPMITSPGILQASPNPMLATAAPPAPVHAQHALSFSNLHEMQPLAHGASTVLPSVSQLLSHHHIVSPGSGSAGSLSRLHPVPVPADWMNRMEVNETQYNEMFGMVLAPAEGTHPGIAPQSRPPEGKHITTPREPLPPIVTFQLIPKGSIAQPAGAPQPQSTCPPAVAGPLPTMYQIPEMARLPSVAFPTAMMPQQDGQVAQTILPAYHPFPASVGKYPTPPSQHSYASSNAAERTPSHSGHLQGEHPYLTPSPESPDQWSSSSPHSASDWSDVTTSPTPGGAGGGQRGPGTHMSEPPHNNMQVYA
protocol: Notch2 binders on small-molecule microarrays, primary screen, biochemical, small-molecule microarray, 635 nm fluorescence, stem cell growth factors (AID 1073)
experimental_parameters: Notch2 binding, higher = more signal
Would you mind labelling by composite z-score? At or over 0.2 is true, under is false.

(Q) Record CC(C)C(O)C1C=CC2C(=O)NC(=O)C2N1Nc1ccc(Cl)cc1Cl (configuration not stated) ; criterion: composite z-score no lower than 0.2. Met?
(A) true

(Q) # bool: composite z-score of "O=C(CS)NCCCCCCNC(=O)[C@@H]1C[C@@H]2C(=O)N[C@@H](Cc3ccccc3)C(=O)N2[C@@H]1c1cccc(OCCO)c1" >= 0.2
(A) true

(Q) hey, is composite z-score for this one >= 0.2? COc1cc(NN2C(C(O)c3ccco3)C=CC3C(=O)N(c4ccccc4)C(=O)C32)cc(OC)c1OC (configuration not stated)
(A) true

(Q) Decide: is the reported value of composite z-score for "C[N+](C)(C)CCCCNC(=O)[C@H]1C[C@H]2C(=O)N3CCC[C@H]3C(=O)N2[C@H]1c1cccc(OCCO)c1" equal to or greater than 0.2?
(A) false

(Q) # check: composite z-score of "COc1ccc([Si](C)(C)[C@@H]2[C@@H](CC(=O)N3CCC[C@H]3CO)O[C@]3(C(=O)N(c4ccccc4)c4ccccc43)[C@H]2C)cc1" is greater than or equal to 0.2
(A) true

(Q) Confirm if composite z-score reported for the compound "NC(=O)NCC#Cc1ccc2c(c1)[C@]1(C(=O)N2)[C@H](C(N)=O)[C@H]2C(=O)O[C@H](c3ccccc3)[C@H](c3ccccc3)N2[C@@H]1c1ccc(O)cc1" is 0.2 or above.
(A) false

(Q) Check the entry "C=C(C(=O)CC[C@@H](OC(=O)c1cccnc1)c1ccccc1OCCO)C(C)C" : does composite z-score equal or exceed 0.2?
(A) false
